Reference source for all entries: PubChem BioAssay (NCI)

system: NCI-H322M lung; assay: NCI-60 one-dose screen, 48 h (100 = growth as untreated, 0 = no growth, -100 = all killed); conditions: 10 µM unless noted
This is part of a sample that, as a whole, favours compounds with a hit. Of some 83,000 tested, about 20% had one in any assay.
READOUT LABEL: growth (%)
Report the figure in % without appending any unit label.

Fc1cccc(CNc2nc(SCCN3CCOCC3)nc3c2cnn3CC(Cl)c2ccc(Br)cc2)c1 (centres undefined)	81.7

Identify measured growth associated with Clc1ccc(Nc2nnc(-c3c[nH]c4ccccc34)o2)cc1
91.3

Find the measured growth of Cc1ccccc1Nc1nnc(-c2c[nH]c3ccccc23)o1 and report it.
38.2

For the molecule N#CC1=C(c2ccco2)Nc2c(c(-c3ccccc3)nn2-c2ccccc2)C12C(=O)Nc1ccc(Br)cc12 (centres undefined) , give its measured growth value.
86.9

State its growth: CN(C)c1nc(NCCNS(=O)(=O)c2ccc(C(=O)/C=C/c3ccccc3)cc2)nc(N2CCOCC2)n1
96.9
